B1: Arginine-glutamic acid dipeptide repeats protein, residues 502 to 543; numbered along this chain, Q9P2R6 (parent)
chain: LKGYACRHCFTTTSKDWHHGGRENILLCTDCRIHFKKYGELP

variants of: B1; experiment: abundance fitness (aPCA) (normalised: wild type 0, dead -1); higher = more abundant; growth selection in yeast, the domain comes from the species named; details: Homo sapiens
Each item that follows carries a reported abundance fitness.
Field format: numeric only.

> print(dat)
   variant.code  recorded.measurement
1          E40F                -0.472
2          K37S                -0.052
3          L41N                -0.366
4          K37G                -0.184
5          D16N                -0.277
6          L26K                -0.268
7          I33G                 0.104
8          K36V                -0.038

Challenge: What measured abundance fitness goes with T12G ?
Response given: -0.312

Challenge: Param item: F10H
Response given: 0.134

Challenge: # iterate: L41S
Response given: -0.325

Challenge: // same read-out, input: F10N
Response given: -0.238

Challenge: Repeat with K2F
Response given: -0.078

Challenge: What would you report for R7S ?
Response given: 0.021

Challenge: Would you mind doing I25A as well?
Response given: -0.122

Challenge: Try the variant I33K
Response given: -0.011

Challenge: And then H34A , what is it?
Response given: -0.033

Challenge: Try this variant too: N24H
Response given: -0.094

Challenge: Also F10P , if possible.
Response given: -0.279

Challenge: Item: R22P
Response given: -0.027

Challenge: Repeat for the following variant: C6S
Response given: -0.939

Challenge: Item: H8L
Response given: -0.489

Challenge: Try this variant too: G20Y
Response given: -0.422

Challenge: Now consider T11M and answer again.
Response given: -0.413

Entry source: the Human Domainome abundance scans (Beltran et al. 2025)
